B1: OR4K15 (parent)
chain: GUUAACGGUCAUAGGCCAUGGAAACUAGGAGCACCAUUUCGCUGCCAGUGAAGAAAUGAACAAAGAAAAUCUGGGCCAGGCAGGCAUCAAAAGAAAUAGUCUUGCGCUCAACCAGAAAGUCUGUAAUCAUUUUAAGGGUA

# Variants of: B1
# METHOD DESCRIPTION: self-cleavage, relative activity (ratio to wild type); higher = more cleavage; in vitro, sequencing; the parent is a self-cleaving ribozyme
Exercise: for every item that follows, state its recorded self-cleavage.
Answers are plain numbers.

Solved cases below.
1) GUUAACGGUCAUAGGCCAUGGAAACUAGGAGCACCAUUUCGCUGCCAGUGAAGAAAUUAACAAAGAAGAUCUGGGCCAGGCAGGCAUCAAAAGAAAUAGUCUUGCGCUCAACCAGAAAGUCUGUAAUCAUUUUAAGGGUA [G58U A68G] : 0.92
2) GUUAACGGUCAUGGGCCAUGGAAACUAGGAGCACCAUUUCGCUGCCAGUGAAGAAAUGAACAAAGAAAAUCUGGGCCAGGCAGGCAUCAAAAGAAUUAGUCUUGCGCUCAACCAGAAAGUCUGUAAUCAUUUUAAGGGUA [A13G A96U] : 1.14
3) GUUAACGGUCAUAGGCCAUGGAAACUAGGAGCACCAUUUCGCUGCCAGUGAAGAAAUGAACGAAGAAAAUCUGGGCCAGGCAGGCAUCAAAAGAAAUAGUUUUGCGCUCAACCAGAAAGUCUGUAAUCAUUUUAAGGGUA [A62G C101U] : 0.41
4) GUUAACGGUCAUAGGCCAUGGAAACUAGGAGCACCAUUUCGCUGCCAGUAAGGAAAUGAACAAAGAAAAUCUGGGCCAGGCAGGCAUCAAAAGAAAUAGUCUUGCGCUCAACCAGAAAGUCUGUAAUCAUUUUAAGGGUA [G50A A52G] : 2.63

Okay, here is my list. What is self-cleavage for each of these?
1. GUUAACGGUCAUAGGCCAUGGAAACUAGGAGCACCAUUUCGCUGCCAGUGAAGAAAUGAACAAAGAAAAUCUGGGCCAGGCAGGCAUCAAAAGAAAUAGUCUUGCGCUCAACCAGAGAGUCUGUGAUCAUUUUAAGGGUA [A117G A125G]
2. GUUAACGGUCAUACGCCAUGGAAACUAGGAGCACCAUUUCGCUGCCAGUGAAGAAAUGGACAAAGAAAAUCUGGGCCAGGCAGGCAUCAAAAGAAAUAGUCUUGCGCUCAACCAGAAAGUCUGUAAUCAUUUUAAGGGUA [G14C A59G]
3. GUUAACGGUCAUAGGCCAUGGUAACUAGGAGCACCAUUUCGCUGCCAGUGAAGAAAUGAACAAAGAAAAUCUGGGCCAGGCAGGCAUCAAAAGAAAUAGUCUUGCGCUCAACCAGGAAGUCUGUAAUCAUUUUAAGGGUA [A22U A116G]
4. GUUAACGGUCAUAGGCCAUGGAAACUAGGAGCACCAUUUCGCUGCCAGUGAAGAAAAGAACAAAGAAAAUCUGGGCCAGGCAGGCAUCAAAAGAAAUAGUCUUGCGCUCAACCAGAAAGUCUGUAAUCAUUUUAAAGGUA [U57A G136A]
5. GUUAACGGUCAUAGGCCAUGGGAACUAGGAGCACCAUUUCGCUGCCAGUGAAGAAAUGAACAAAGAAAAUCUGGGCCAGGCAGGCAUCAAAAGAAAUAGUCUAGCGCUCAACCAGAAAGUCUGUAAUCAUUUUAAGGGUA [A22G U103A]
6. GUUAACGGUCAUAGGCCAUGGAAACUAGGAGCACCAUUUCGCUGCCAGUGAAGGAAUGAACAAAGAAAAUCUGGGCCAGGCAGGCAUCAAAAGAAAUAGUCUUGCGCUCAACCAGAAAGACUGUAAUCAUUUUAAGGGUA [A54G U120A]

a:
1. 0.66
2. 1.46
3. 0.96
4. 1.37
5. 0.41
6. 1.89

Record self-cleavage for all entries; do not skip any.
1. GUUAACGGUCAUAGGCCAUGGAAACUAGGAGCACCAUUUCGCUGCCAGUGAAGAAAUGAACAAAGAAAAUCUGGGCCAGGCAGGCAUCAGAAGAAAUAGUCUUGCGCUCAACCAGAAAGUCUGUGAUCAUUUUAAGGGUA [A90G A125G]
2. GUUAACGGUCAUAGGCCAUGGAAACUAGGAGCACCAUUUCGCUGCCAGUGAAGUAAUGAACAAAGAAAAUCUGGGCCGGGCAGGCAUCAAAAGAAAUAGUCUUGCGCUCAACCAGAAAGUCUGUAAUCAUUUUAAGGGUA [A54U A78G]

a:
0.23
0.25

Please give self-cleavage, item by item, for the list that follows.
1. GUUAACGGUCAUAGGCCAUGGAAACUAGGAGCACCAUUUCGCUGCCAGUGAAGAAAUGAACAAAGAGAAUCUGGACCAGGCAGGCAUCAAAAGAAAUAGUCUUGCGCUCAACCAGAAAGUCUGUAAUCAUUUUAAGGGUA [A67G G75A]
2. GUUAACGGUCAUAGGCCAUGGAAACUAGGAGCACCAUUACGCUGCCUGUGAAGAAAUGAACAAAGAAAAUCUGGGCCAGGCAGGCAUCAAAAGAAAUAGUCUUGCGCUCAACCAGAAAGUCUGUAAUCAUUUUAAGGGUA [U39A A47U]
3. GUUAACGGUCAUAGGCCAUGGAAACUAGGAGCCCCAUUUCGCUGCCAGUGAAGAAAUGAACAAAGAAAAUCUGGGCCAGGCAGGCAUCAAAAGAAAUAGUCCUGCGCUCAACCAGAAAGUCUGUAAUCAUUUUAAGGGUA [A33C U102C]
4. GUUAACGGUCAUAGGCCAUGGAAACUAGGAGCACCAUUUCGCUGCCAGUGAAGAAAUGAACAAAGAAAAUCUGGGCCAGGCAGGCAUCAUAAGAAAUAGUCUUGCGCUCAACCAGUAAGUCUGUAAUCAUUUUAAGGGUA [A90U A116U]
5. GUUAACGGUCAUAGGCCAUGGAAACUAGGAGCACCAUUUCGCUGCCAGUGAAGAAACGAACAAAGAAAAUCUGGGCCAGGCAGGCAUCAAAAGAAAAAGUCUUGCGCUCAACCAGAAAGUCUGUAAUCAUUUUAAGGGUA [U57C U97A]
6. GUUAACGGUCAUAGGCCAUGGAAACUAGGAGCACCAUUUCGCUGCCAGUGAAGAAAUGAACAAAGAAAAUCUGGGCCAGGCAGGCAUCAAAAGAAGUAGUCCUGCGCUCAACCAGAAAGUCUGUAAUCAUUUUAAGGGUA [A96G U102C]

a:
[0.11, 0.73, 2.22, 0.24, 1.32, 2.33]

For each listed entry, give its self-cleavage.
1. GUUAACGGUCAUAGGCCAUGGAAACUAGGAGCACCAUUUCGCUGCCAGUGAAGAAAUGAACAAAGAAAAUCUGGGCCAGGCAGGCAUCAAAAGAAAUAGUCCUGCGCUCAACCAGAAAGUCUGUACUCAUUUUAAGGGUA [U102C A126C]
2. GUUAACGGUCAUAGGCCAUGGAAACUAGGAGCACCAUUUCGCUGCCAGUGAAGAAAUGAACAAAGAAAAUCUGGGCCAGGCAGGCAUCAAAAGACAUAGUCUUGCGCUCAACCAGAAAGUCUGUAAUCAUUUUAAGGGUA [A95C]
3. GUUAACGGUCAUAGGCCAUGGAAUCUAGGAGCACCAUUUCGCUGCCAGUGAAGAAAUGAACAAAGAAAAUCUGGGCCAGGCAGGCAUCAAAAGAAAUAGCCUUGCGCUCAACCAGAAAGUCUGUAAUCAUUUUAAGGGUA [A24U U100C]
4. GUUAACGGUCAUAGGCCAUGGAAACUAGGAGCACCAUUUCGCUGCCAGUGAAGAAAUGAACAAAGAAAAUCUGGGCCAGGCAGGCAUCCAAAGAAAUAGUCUUGCGCUCAACCAGAAAGUCUGUAAUCAUUUUGAGGGUA [A89C A134G]
5. GUUAACAGUCAUAGGCCAUGGGAACUAGGAGCACCAUUUCGCUGCCAGUGAAGAAAUGAACAAAGAAAAUCUGGGCCAGGCAGGCAUCAAAAGAAAUAGUCUUGCGCUCAACCAGAAAGUCUGUAAUCAUUUUAAGGGUA [G7A A22G]
6. GUUAACGGUCAUAGGCCAUGGAAACUAGAGGCACCAUUUCGCUGCCAGUGAAGAAAUGAACAAAGAAAAUCUGGGCCAGGCAGGCAUCAAAAGAAAUAGUCUUGCGCUCAACCAGAAAGUCUGUAAUCAUUUUAAGGGUA [G29A A30G]
7. GUUAACGGUCAUAUGCCAUGGAAACUAGGAGCACCAUUUCGCUGCCAGUGAAGAAAUGAACAAAGAAAAUCUGGGCCAGGCAGGCAUCAGAAGAAAUAGUCUUGCGCUCAACCAGAAAGUCUGUAAUCAUUUUAAGGGUA [G14U A90G]
8. GUUAACGGUCAUAGGCCAUGGGAACUAGGAGCACCAUUUCGCUGCCAGUGAAGAAAUGAACAAAGAAAAUCUGGGCCAGGCAGGCAUCAAAAGAAAUAGUCUUGCGCUCAACCAGAAAGUCUGUAAUCAUUUUAAGGGAA [A22G U139A]

a:
[1.47, 1.06, 2.08, 1.16, 1.42, 1.16, 1.34, 1.14]

# batch: return self-cleavage for each of the 2 variants below
1. GUUAACGGUCAUAGGCCAUGGUAACUAGGAGCACCAUUUCGCUGCCAGUGAAGAAAUGAACAAAGAAAAUCUGGGCCAGGCAGGCAUCAAAAGAAAUAGUCUUGCGCUCAACCAGAAAGUCUGUAAUCAUUUUAAGGGUA [A22U]
2. GUUAACGGUCAUAGGCCAUGGAAACUAGGAGCUCCAUUUCGCUGCCAGUGAAGAAAUGAACAAAGAAAAUCUGGGCCAGGCAGGCAUCAAAAGAAAUAGUCUUGCGCUCAACCAGAAAGUCUGUAAUCUUUUUAAGGGUA [A33U A129U]

a:
1: 1.3; 2: 1.42

For the 2 variants below, give their self-cleavage values.
1. GUUAACGGUCAUAGGCCAUGGAAACUAGGAGCACCAUUUCGCUGCCAGUGAAGAAAUGAACAAAGAAAAUCUGGGCCAGGCAGGCAUCAAAUGAAAUAGUCUUGCGCUCAACCAGAAAGUCUGUAGUCAUUUUAAGGGUA [A92U A126G]
2. GUUAACGGUCAUAGGCCAUGGAAACUAGGAGCACCAUUUCGCUGCCAGUGAAGAAAUGAACGAAGAAAAUCUGGGCCAGGCAGGCAUCAAAAGAAAUAGUCUUGCGCUCAACCAGAAAGUCUGUAAUCACUUUAAGGGUA [A62G U130C]

a:
[1.18, 1.15]

Take each entry in turn and give its self-cleavage.
1. GUUAACGGUCAUAGGCCAUGGAAACUAGGAGCACCAUUUCGCUGCCAGUGAAGAGAUGAACAAAGAAAAUCUGGGCCAGGCAGGCAUCAAAAGAAAUAGUCUUGCGCUCAACCAGAAAGUCUGUAAUCAAUUUAAGGGUA [A55G U130A]
2. GUUAACGGUCAAAGGCCAUGGAAACUAGGAGCACCAUUUCGCUGCCAGUGAAGAAAUGGACAAAGAAAAUCUGGGCCAGGCAGGCAUCAAAAGAAAUAGUCUUGCGCUCAACCAGAAAGUCUGUAAUCAUUUUAAGGGUA [U12A A59G]
3. GUUAACGGACAUAGGCCAUGGAAACUAGGAGCACCAUUUCGCUGCCAGUGAAGAAAUGAACAAAGAAAAUCUGGGCCAGGCAGGCAUCAAAAGAAAUAGUCUUGCGCUCAACCAGAAAGUCUGUAAUCAUUUUGAGGGUA [U9A A134G]
4. GUUGACGGUCAUAGGCCAUGGAAACUAGGAGCACCAUUUCGCUGCCAGUGAAGAAAUGAACAAAGAAAAUCUGGGCCAGGCAGGCAUCAAAUGAAAUAGUCUUGCGCUCAACCAGAAAGUCUGUAAUCAUUUUAAGGGUA [A4G A92U]
5. GUUAACGGUCAUAGGCCAUGGAAACUAGGAGCACCAUUUCGCUGCCAGUGAAUAAAUGAACAAAGAAAGUCUGGGCCAGGCAGGCAUCAAAAGAAAUAGUCUUGCGCUCAACCAGAAAGUCUGUAAUCAUUUUAAGGGUA [G53U A69G]
6. GUUAACGGUCAUAGGCCAUGGAGACUAGGAGCACCAUUUCGCUGCCAGUGAAGAAAUGAACAAAGAAAAUCUGGGCCAGGCAGGCAUCAAAAGAAAUAGUCUUGCGCUCAACCAGAAAGUCUGUAAGCAUUUUAAGGGUA [A23G U127G]
7. GUUAACGGUCAUAGGCCAUGGACACUAGGGGCACCAUUUCGCUGCCAGUGAAGAAAUGAACAAAGAAAAUCUGGGCCAGGCAGGCAUCAAAAGAAAUAGUCUUGCGCUCAACCAGAAAGUCUGUAAUCAUUUUAAGGGUA [A23C A30G]
8. GUUAACGGUCAUAGGUCAUGGAAACUAGGAGCACCAUUUCGCUGCCAGUGAAGAAAUGAACAAAGAAAAUCUGGGCCAGGCAGGCAUCAAAAGAGAUAGUCUUGCGCUCAACCAGAAAGUCUGUAAUCAUUUUAAGGGUA [C16U A95G]

a:
[0.52, 1.26, 1.66, 1.44, 0.57, 1, 0.62, 1.21]

Kindly give each listed record's self-cleavage.
1. GUUAACGGUCAUAGGCCAUGGAAACUAGGAGCACCACUUCGCUGCCAGUGAAGAAAUGAACAAAGAAAAUCUGGGCCAGGCAGGCAUCAAAAUAAAUAGUCUUGCGCUCAACCAGAAAGUCUGUAAUCAUUUUAAGGGUA [U37C G93U]
2. GUUAACGGUCAUAGGCCAUGGAAACUAGGAGCACCAUUUCGCUGCCAGUGAAGAAAUGAACAAAGAAAAUCUGGGCCAGGCAGGCAUCAGAAGAAAUAGUCUUGCGCUCAACCAGAAAGUCUGUAAUCAUUUUUAGGGUA [A90G A134U]
3. GUUAACGGUCAUAGGCCAUGGAAACUAGGAGCACCAUUUCGCUGCCAGUGAAGAAAUGAACAAAGAAAAUCUGUGCCAGGCAGGCAUCAAAAGAAAUAGUCUUGCGCUCAACCUGAAAGUCUGUAAUCAUUUUAAGGGUA [G74U A114U]

a:
1: 1.07; 2: 1.49; 3: 0.04

Data origin: the RNAGym collection of RNA variant scans (doi:10.7554/elife.90254)
